System: A. aegypti ACP receptor (AedaeACPR)
Test summary: Calcium bioluminescence (aequorin) reporter assay of heterologously expressed ACPR
Type: cell-based, Aedes aegypti
Details: ACPR in CHO-K1 aequorin cells; relative to native Aedae-ACP
Non-standard residues stand in square brackets, D forms with d. Residues, ends and D or L forms follow the SMILES beside them. pGlu = O=C1CC[C@@H](C(=O)O)N1
Kind request: treat 10 fold as inclusive, so Fold-reduction in activity relative to AedaeACP at 10 fold or higher is Fulfilled, anything lower is Not fulfilled.

Molecule	Discrete label
CC(C)[C@H](NC(=O)[C@@H]1CCC(=O)N1)C(=O)N[C@H](C(=O)N[C@@H](Cc1ccccc1)C(=O)N[C@@H](CO)C(=O)N[C@@H](CCCNC(=N)N)C(=O)N[C@@H](CC(=O)O)C(=O)N[C@@H](Cc1c[nH]c2ccccc12)C(=O)N[C@@H](CC(N)=O)C(=O)N[C@@H](C)C(=O)NCC(N)=O)[C@@H](C)O [Aedae-ACP (+G)] ([pGlu]VTFSRDWNAG-NH2)	Not fulfilled
CC(C)[C@H](NC(=O)[C@@H]1CCC(=O)N1)C(=O)N[C@H](C(=O)N[C@@H](Cc1ccccc1)C(=O)N[C@@H](CO)C(=O)N[C@@H](CCCNC(=N)N)C(=O)N[C@@H](CC(=O)O)C(=O)N[C@@H](Cc1c[nH]c2ccccc12)C(N)=O)[C@@H](C)O [Aedae-ACP (1-8)] ([pGlu]VTFSRDW-NH2)	Fulfilled
CC(C)[C@H](NC(=O)[C@@H]1CCC(=O)N1)C(=O)N[C@H](C(=O)N[C@@H](Cc1ccccc1)C(=O)N[C@@H](CO)C(=O)N[C@@H](CCCNC(=N)N)C(=O)N[C@@H](CC(=O)O)C(=O)N[C@@H](Cc1c[nH]c2ccccc12)C(=O)N[C@@H](C)C(=O)N[C@@H](C)C(N)=O)[C@@H](C)O [Aedae-ACP (A9)] ([pGlu]VTFSRDWAA-NH2)	Not fulfilled
CC(C)[C@H](NC(=O)[C@@H]1CCC(=O)N1)C(=O)N[C@H](C(=O)N[C@@H](Cc1ccccc1)C(=O)N[C@@H](C)C(=O)N[C@@H](CCCNC(=N)N)C(=O)N[C@@H](CC(=O)O)C(=O)N[C@@H](Cc1c[nH]c2ccccc12)C(=O)N[C@@H](CC(N)=O)C(=O)N[C@@H](C)C(N)=O)[C@@H](C)O [Aedae-ACP (A5)] ([pGlu]VTFARDWNA-NH2)	Fulfilled
CC[C@H](C)[C@H](NC(=O)[C@@H]1CCC(=O)N1)C(=O)N[C@H](C(=O)N[C@@H](Cc1ccccc1)C(=O)N[C@@H](CO)C(=O)N[C@@H](CCCNC(=N)N)C(=O)N[C@@H](CC(=O)O)C(=O)N[C@@H](Cc1c[nH]c2ccccc12)C(=O)N[C@@H](CC(N)=O)C(=O)N[C@@H](C)C(N)=O)[C@@H](C)O [Grybi-ACP] ([pGlu]ITFSRDWNA-NH2)	Fulfilled

====

Test system: A. aegypti ACP receptor (AedaeACPR)
Test summary: Calcium bioluminescence (aequorin) reporter assay of heterologously expressed ACPR
Assay type: cell-based, Aedes aegypti
Details: ACPR in CHO-K1 aequorin cells; relative to native Aedae-ACP
Entries and their Fold-reduction in activity relative to AedaeACP values follow.
Observed property: Fold-reduction in activity relative to AedaeACP

>>> print(df.to_string())
                                  substance                               target        value
0  pQVTFSRDANAamide [Aedae-ACP (A8), synthetic ACP analog, alanine at position 8]  A. aegypti ACP receptor (AedaeACPR)  >1,000 fold
1  pQLTFSSGWGNamide [Helze-AKH, naturally-occurring insect AKH decapeptide]  A. aegypti ACP receptor (AedaeACPR)  >1,000 fold
2  pQVTFSRDWNA-OH [Aedae-ACP (-OH), non-amidated (free acid) ACP analog]  A. aegypti ACP receptor (AedaeACPR)  >1,000 fold
